measurement_target: T1, hFc tagged human LAG3 ECD recombinant protein (human, UniProt P18627 23-450)
T1 construct: range 23-450; also called biotin labelled hFc tagged human LAG3 ECD; not shown: human IgG Fc tag
T1 sequence (looked up): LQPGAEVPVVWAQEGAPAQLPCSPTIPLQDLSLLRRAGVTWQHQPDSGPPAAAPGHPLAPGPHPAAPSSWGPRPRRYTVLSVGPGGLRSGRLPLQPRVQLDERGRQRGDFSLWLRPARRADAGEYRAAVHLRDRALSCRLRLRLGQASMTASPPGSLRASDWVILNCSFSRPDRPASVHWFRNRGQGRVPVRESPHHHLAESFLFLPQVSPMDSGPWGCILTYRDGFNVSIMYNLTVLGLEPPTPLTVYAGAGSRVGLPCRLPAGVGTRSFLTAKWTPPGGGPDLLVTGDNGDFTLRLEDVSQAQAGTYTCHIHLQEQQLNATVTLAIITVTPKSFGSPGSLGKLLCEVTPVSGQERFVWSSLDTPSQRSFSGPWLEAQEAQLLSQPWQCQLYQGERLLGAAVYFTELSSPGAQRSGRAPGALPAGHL
test: competitive ELISA: excess competitor, biotin hFc-LAG3 ECD, coated BAP-050
Below, each entry is listed with its recorded % competition.
The response must be a number in % with no trailing unit.

| binder | % competition / % |
| --- | --- |
| Antibody 015 (antibody, V domains shown, mouse hybridoma antibody) VH: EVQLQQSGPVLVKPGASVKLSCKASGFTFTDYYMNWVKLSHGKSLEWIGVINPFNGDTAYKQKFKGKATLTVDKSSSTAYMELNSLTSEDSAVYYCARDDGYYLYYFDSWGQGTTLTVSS VL: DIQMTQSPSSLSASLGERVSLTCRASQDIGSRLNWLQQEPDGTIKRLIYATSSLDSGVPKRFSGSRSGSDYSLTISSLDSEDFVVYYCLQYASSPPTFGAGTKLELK | 1.6 |
| Antibody 038 (antibody, V domains shown, mouse hybridoma antibody) VH: DVQVQESGPGLVKPSQSLSLTCSVTGYSITSGYYWNWIRQFPGNKLEWMGYISYDGSNEYNLSLKNRLSITRDTSKNQFFLKLNSVTTEDTATYYCAREEDGYYGGMDYWGQGTSVTVSS VL: DIVMTQSHKFMSASVGVRVSITCRASQDVDTAVAWYQQKPGQSPKLLIYWASTRHTGVPDRFTGSGSGTDFTLTISNVQSEDLADYFCQQYSSYPYTFGGGTKLEIK | 6.4 |

Below: the item to evaluate.
Reported % competition of Antibody 039 (antibody, V domains shown, mouse hybridoma antibody) VH: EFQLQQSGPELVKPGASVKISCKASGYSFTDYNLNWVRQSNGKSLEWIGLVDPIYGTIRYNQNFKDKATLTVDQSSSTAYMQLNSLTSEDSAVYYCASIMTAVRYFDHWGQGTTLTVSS VL: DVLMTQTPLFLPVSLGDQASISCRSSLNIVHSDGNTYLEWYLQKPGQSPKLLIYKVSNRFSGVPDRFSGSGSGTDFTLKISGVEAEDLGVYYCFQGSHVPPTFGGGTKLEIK : 2.6
